Tested on: HCC1143
RUN_DESCRIPTION: normalised response (% of control), CellTox Green; higher = less cell death (100 = DMSO, 0 = benzethonium chloride kill control)
CONDITION_PARAMETERS: incubation time: 72 h
REPORTED_ENDPOINT: normalised response (%)

| COMPOUND | STUDY_SYSTEM | VALUE_UNIT | NUMBER |
| --- | --- | --- | --- |
| C[C@@H]1C[C@H]2[C@@H]3CCC4=CC(=O)C=C[C@]4(C)[C@@]3(F)[C@@H](O)C[C@]2(C)[C@@]1(O)C(=O)CO [Dexamethasone] (10000 nM) | HCC1143 | % | 51.4 |
| COc1cc(Nc2ncc(F)c(Nc3ccc4c(n3)N(COP(=O)(O)O)C(=O)C(C)(C)O4)n2)cc(OC)c1OC [Fostamatinib] (25 nM) | HCC1143 | % | 100 |
| CN1CCN(c2nc(C3=C(c4c[nH]c5ccccc45)C(=O)NC3=O)c3ccccc3n2)CC1 [Sotrastaurin] (10000 nM) | HCC1143 | % | 93.5 |
| Cc1c(N)nc([C@H](CC(N)=O)NC[C@H](N)C(N)=O)nc1C(=O)N[C@H](C(=O)N[C@H](C)[C@@H](O)[C@H](C)C(=O)N[C@H](C(=O)NCCc1nc(-c2nc(C(=O)NCCC[S+](C)C)cs2)cs1)[C@@H](C)O)[C@@H](OC1OC(CO)C(O)C(O)C1OC1OC(CO)C(O)C(OC(N)=O)C1O)c1cnc[nH]1 (stereo partly drawn) [Bleomycin] (1000 nM) | HCC1143 | % | 99.9 |
| CCc1cnn2c(NCc3ccc[n+]([O-])c3)cc(N3CCCC[C@H]3CCO)nc12 [Dinaciclib] (10 nM) | HCC1143 | % | 93.7 |
| CCCc1cc(C)[nH]c(=O)c1CNC(=O)c1cc(-c2ccnc(N3CCN(C)CC3)c2)cc2c1cnn2C(C)C [GSK343] (100 nM) | HCC1143 | % | 91.9 |
| O=C(c1cc(Cc2n[nH]c(=O)c3ccccc23)ccc1F)N1CCN(C(=O)C2CC2)CC1 [Olaparib] (1000 nM) | HCC1143 | % | 93.3 |
| Cn1cc(C[C@@H](N)C(=O)O)c2ccccc21 [1-methyl-D-tryptophan] (5000 nM) | HCC1143 | % | 124 |
| CO[C@H](C(=O)[C@@H](O)[C@@H](C)O)[C@@H]1Cc2cc3cc(O[C@H]4C[C@@H](O[C@@H]5C[C@@H](O)[C@H](O)[C@@H](C)O5)[C@H](O)[C@@H](C)O4)c(C)c(O)c3c(O)c2C(=O)[C@H]1O[C@H]1C[C@@H](O[C@@H]2C[C@@H](O)[C@@H](O[C@@H]3C[C@](C)(O)[C@H](O)[C@@H](C)O3)[C@@H](C)O2)[C@H](O)[C@@H](C)O1 [Plicamycin] (1000 nM) | HCC1143 | % | 81.6 |
| Nc1nc(Cl)nc2c1ncn2[C@@H]1O[C@H](CO)[C@@H](O)[C@@H]1F [Clofarabine] (1000 nM) | HCC1143 | % | 112 |
| Cc1c(N)nc([C@H](CC(N)=O)NC[C@H](N)C(N)=O)nc1C(=O)N[C@H](C(=O)N[C@H](C)[C@@H](O)[C@H](C)C(=O)N[C@H](C(=O)NCCc1nc(-c2nc(C(=O)NCCC[S+](C)C)cs2)cs1)[C@@H](C)O)[C@@H](OC1OC(CO)C(O)C(O)C1OC1OC(CO)C(O)C(OC(N)=O)C1O)c1cnc[nH]1 (stereo partly drawn) [Bleomycin] (100 nM) | HCC1143 | % | 91.3 |
| CC[C@H](CC#N)OC(=O)N[C@@H](C)c1cccc(NC(=O)Nc2ccc(-c3cnco3)c(OC)c2)c1 [AVN944] (100 nM) | HCC1143 | % | 76.5 |
| C[C@@H]1C[C@H]2[C@@H]3CCC4=CC(=O)C=C[C@]4(C)[C@@]3(F)[C@@H](O)C[C@]2(C)[C@@]1(O)C(=O)CO [Dexamethasone] (1000 nM) | HCC1143 | % | 107 |
| C[C@@H](C(=O)O)c1ccc(-c2ccccc2)c(F)c1 [Tarenflurbil] (100 nM) | HCC1143 | % | 98.1 |
| Cn1cc(C[C@@H](N)C(=O)O)c2ccccc21 [1-methyl-D-tryptophan] (500 nM) | HCC1143 | % | 94.1 |
| C[C@@H](C(=O)O)c1ccc(-c2ccccc2)c(F)c1 [Tarenflurbil] (1000 nM) | HCC1143 | % | 105 |
| CC[C@@H]1C(=O)N(C)c2cnc(Nc3ccc(C(=O)N[C@H]4CC[C@H](N5CCN(CC6CC6)CC5)CC4)cc3OC)nc2N1C(C)C [Volasertib] (100 nM) | HCC1143 | % | 81.8 |
| COc1cc2c(Oc3ccc(NC(=O)C4(C(=O)Nc5ccc(F)cc5)CC4)cc3F)ccnc2cc1OCCCN1CCOCC1 [Foretinib] (100 nM) | HCC1143 | % | 106 |
